Values were extracted from patent US20240360228A1.

biological target: T1, human CCR8 (human, UniProt P51685 1-355); assay: flow blocking, PBMC CCR8+CD4+; competitor PE-AB11
T1 construct: Native CCR8 on human PBMC (CCR8+ CD3+ or CCR8+ CD4+ lymphocytes); also called chemokine (C-C motif) receptor 8
T1 sequence (P51685 whole entry): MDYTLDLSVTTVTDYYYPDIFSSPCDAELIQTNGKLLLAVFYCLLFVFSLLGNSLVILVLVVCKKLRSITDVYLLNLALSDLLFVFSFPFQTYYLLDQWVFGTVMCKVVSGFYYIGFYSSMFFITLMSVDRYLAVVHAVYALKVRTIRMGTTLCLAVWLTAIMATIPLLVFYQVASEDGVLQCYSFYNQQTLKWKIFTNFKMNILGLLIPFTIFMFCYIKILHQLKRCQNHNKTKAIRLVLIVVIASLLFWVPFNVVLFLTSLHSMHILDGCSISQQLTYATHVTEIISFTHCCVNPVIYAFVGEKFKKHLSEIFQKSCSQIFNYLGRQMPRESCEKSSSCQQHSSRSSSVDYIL
Measured % Positive cells of individual entries
Quick note: give the figure in %, leave out the unit.

See these solved cases before continuing.
AB15 (antibody, V domains shown, Hybridoma monoclonal; Same VH/VL entries as AB14; also called antibody 15; clone 15) VH: EVQLVESGGGLVQPKGSLKLSCAASGFTFNTYAMNWVRQAPGKGLEWVARIRSKSNNYATYYVDSVKDRFTISRDDSQSMLYLQINNLKTEDTAMYYCVRGRELGPYSAMDYWGQGTSVTVSS VL: DIVMTQAAPSVPVTPGESVSISCRSSKSLLHSNGNTYLYWFLQRPGQSPQLLIYRMSNLASGVPDRFSGSGSGTAFTLRISRVEAEDVGLYYCMQHLEYPFTFGGGTKLEIK :: 0.29
AB10 (antibody, V domains shown, Hybridoma monoclonal; also called antibody 10; clone 10) VH: EVQLVETGGGLVQPKGSLKLSCAVSGFTFKTNAMNWVRQAPGKGLEWVARIRSKSNKYATYYADSVKDRFTISRDDSQSMLYLQMNNLKTEDTAMYYCVRGSEMGYYYAMDYWGQGTSVTVSS VL: DIVMTQAAPSVPVTPGESVSISCRSSKSLLHSNGNTYLYWFLQRPGQSPQLLIYRMSNLASGVPDRFSGSGSGTAFTLRISRVEAEDVGVYYCMQHLEYPFTFGGGTKLEIK :: 0.03
AB12 (antibody, V domains shown, Hybridoma monoclonal; also called antibody 12; clone 12) VH: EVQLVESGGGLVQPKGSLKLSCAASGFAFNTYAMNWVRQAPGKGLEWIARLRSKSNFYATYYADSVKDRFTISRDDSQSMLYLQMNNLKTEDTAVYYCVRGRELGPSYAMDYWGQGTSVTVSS VL: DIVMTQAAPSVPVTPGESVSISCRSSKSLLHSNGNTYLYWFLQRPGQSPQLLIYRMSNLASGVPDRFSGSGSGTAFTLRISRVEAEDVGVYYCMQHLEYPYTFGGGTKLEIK :: 0.02
AB1 (antibody, V domains shown, Hybridoma monoclonal (mouse or rat); Same VH/VL entries as AB2; also called antibody 1; clone 1) VH: QVQLKESGPGLVKPSETLSLTCTVSGFSLTSYHISWVRQPPGKGLEWMGVIWGDGSKTYNSALKSRLSISRDTSKSQVFLKMRSLKTEDTATYYCARGGDSGFAYWGQGTLVTVSS VL: DIQMTQSPASLSASLEEIVTITCQASQDIGNWLSWYQQKPGKSPQLLIYGTTNLADGVPSRFSGSRSGTQYSLKISRLQVEDIGIYYCLQAYSVPLTFGSGTKLEIK :: 2.07
AB13 (antibody, V domains shown, Hybridoma monoclonal; also called antibody 13; clone 13) VH: EVQLVETGGGLVQPKGSLKLSCAASGFTFNAYAMNWVRQAPGKGLEWVARIRTKSNNYATYYADSVKDRFTISRDDSQTMLYLQMNNLKTEDTAMYYCVRDRATVTTGRAMDYWGQGTSVTVSS VL: DIVMTQAAPSLPVTPGESVSISCRSSKSLLHSNGNTYLYWFLQRAGQSPQLLIYRMSNLASGVPDRFSGSGSGTAFTLRISRVEAEDVGVYYCMQHLEYPFTFGSGTKLEIK :: 0.04
AB5 (antibody, V domains shown, Hybridoma monoclonal; Same VH/VL entries as AB6; also called antibody 5; clone 5) VH: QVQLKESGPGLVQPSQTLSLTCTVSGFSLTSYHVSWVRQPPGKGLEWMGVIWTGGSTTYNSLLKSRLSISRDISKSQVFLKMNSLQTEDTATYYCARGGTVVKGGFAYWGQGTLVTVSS VL: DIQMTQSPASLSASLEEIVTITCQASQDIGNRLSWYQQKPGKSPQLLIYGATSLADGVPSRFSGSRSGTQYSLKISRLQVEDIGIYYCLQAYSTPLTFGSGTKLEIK :: 2.08
AB11 (antibody, V domains shown, Hybridoma monoclonal; also called antibody 11; clone 11) VH: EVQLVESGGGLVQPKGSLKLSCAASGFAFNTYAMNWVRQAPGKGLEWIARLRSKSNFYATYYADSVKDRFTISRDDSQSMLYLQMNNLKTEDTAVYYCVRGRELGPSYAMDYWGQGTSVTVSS VL: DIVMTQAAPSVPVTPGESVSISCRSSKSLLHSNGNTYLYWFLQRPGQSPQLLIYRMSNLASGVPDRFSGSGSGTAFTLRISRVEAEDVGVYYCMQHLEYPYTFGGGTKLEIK :: 0.06
AB3 (antibody, V domains shown, Hybridoma monoclonal; also called antibody 3; clone 3) VH: QVQLKESGPGLVKPSETLSLTCTVSGFSLTSYHISWVRQPPGKGLEWMGVIWGDGKTTYNSALKSRLSISRDTSKSQVFLKMNSLKTEDTATYYCARGGDSGFAYWGQGTLVTVSS VL: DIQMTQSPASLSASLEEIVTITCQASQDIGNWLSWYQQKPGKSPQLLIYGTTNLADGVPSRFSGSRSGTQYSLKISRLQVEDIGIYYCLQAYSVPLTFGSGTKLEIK :: 1.87

Prompt: # input binder: AB2 (antibody, V domains shown, Hybridoma monoclonal; Same VH/VL entries as AB1; also called antibody 2; clone 2) VH: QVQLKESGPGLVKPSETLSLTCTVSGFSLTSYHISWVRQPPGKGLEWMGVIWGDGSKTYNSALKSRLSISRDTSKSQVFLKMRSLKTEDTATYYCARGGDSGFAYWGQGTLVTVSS VL: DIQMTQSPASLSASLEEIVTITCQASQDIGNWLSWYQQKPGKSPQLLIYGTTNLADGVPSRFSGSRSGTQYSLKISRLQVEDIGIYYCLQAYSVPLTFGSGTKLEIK ; wanted: its % Positive cells
Completion: 2.03
